These measurements were taken from ChEMBL document CHEMBL4842364.

Consider the following compounds; for each one, report its logD.
- method summary: Octanol/buffer distribution coefficient, logD of the compound at pH 7.4
- Assay type: physicochemical
Please reply with the number alone, leaving off any unit.

Query: Give the reported logD for this compound. C=CCn1c(=O)c2cnc(Nc3ccc(N4CCNCC4)cc3)nc2n1-c1ccc2c(n1)[C@@](O)(CC)CC2
Reply: 1

Query: Given C=CCn1c(=O)c2cnc(Nc3ccc4c(c3)CN(C)CC4)nc2n1-c1cccc(C(C)(C)O)n1 , respond with its logD.
Reply: 2.4

Query: Fill in logD for record C=CCn1c(=O)c2cnc(Nc3ccc(N4CCN(C)CC4)cc3)nc2n1-c1cccc(C(C)(C)O)n1
Reply: 2.2
